Where do these numbers come from? They come from PubChem BioAssay (NCI).

system: U251 CNS; experiment: NCI-60 one-dose screen, 48 h (100 = growth as untreated, 0 = no growth, -100 = all killed); conditions: 10 µM unless noted
Compounds without any hit were thinned out: in the full panel of roughly 83,000, 20% have a hit.
property.name: growth (%)
Give a bare numeral; the unit % is implied.

substance_smiles=COc1ccc(-c2cc(-c3cccs3)n(N=O)c(=O)c2C#N)cc1 study_system="U251 CNS" unit_info=% measured_number=112
substance_smiles=COc1ccc(/C(=C\c2ccc3c(c2)OCO3)C(=O)Nc2nc3ccccc3s2)cc1OC study_system="U251 CNS" unit_info=% measured_number=97.9
substance_smiles=COc1ccc(-c2nc3c(c(C)nn3-c3ccc(F)cc3)c(=O)[nH]2)cc1 study_system="U251 CNS" unit_info=% measured_number=44
substance_smiles=COC1=C(Br)C(=O)C(OC)=C(Br)C1=O study_system="U251 CNS" unit_info=% measured_number=104
substance_smiles=Nc1c(C(=O)Nc2cccc3ccccc23)sc2nc3c(cc12)CCCC3 study_system="U251 CNS" unit_info=% measured_number=25.4
substance_smiles=Cn1nc(-c2ccccc2)c2c(-c3ccccc3)onc2c1=O study_system="U251 CNS" unit_info=% measured_number=25.2
substance_smiles=Cc1ccnc2c(OCc3ccccc3)cccc12 study_system="U251 CNS" unit_info=% measured_number=92.7

## Task For the molecule shown here, CN(C)c1ccc(N=C2C=CC(=O)C=C2)cc1 , give the reported growth.
## Result 76.5

----------
test system: SK-MEL-2 melanoma; experiment: NCI-60 one-dose screen, 48 h (100 = growth as untreated, 0 = no growth, -100 = all killed); conditions: 10 µM unless noted
Compounds without any hit were thinned out: in the full panel of roughly 83,000, 20% have a hit. The source made the active and inactive calls. How the source made its calls: active means growth percent below 10; inactive means the rest.
property.name: growth

Solved entries:
substance_smiles=CN(C)c1ccc(N)c2ccccc12 study_system="SK-MEL-2 melanoma" result="89.6% (inactive)"
substance_smiles=CC(=O)O[C@H]1CC[C@]2(C)[C@H]3CC=C4[C@@H]5[C@H](C)[C@@H](C)CC[C@]5(C(=O)NCCNCCNCCN)CC[C@@]4(C)[C@]3(C)CC[C@H]2C1(C)C study_system="SK-MEL-2 melanoma" result="105% (inactive)"
substance_smiles=Cn1c(=O)c2c(nc(N3CCCC3)n2C)n(C)c1=O study_system="SK-MEL-2 melanoma" result="97.4% (inactive)"
substance_smiles=CCc1nnc(NC(=O)c2ccoc2COc2ccccc2)s1 study_system="SK-MEL-2 melanoma" result="54.3% (inactive)"

Switching to the query record.
## Task Reported growth, molecule C=C1C(=O)O[C@H]2[C@H]1CC/C(Cn1cc(-c3ccc(F)cc3)nn1)=C\CC[C@@]1(C)O[C@@H]21 : ____
## Result 14.9% (inactive)

----------
tested on: RXF 393 renal; experiment: NCI-60 one-dose screen, 48 h (100 = growth as untreated, 0 = no growth, -100 = all killed); conditions: 10 µM unless noted
Compounds without any hit were thinned out: in the full panel of roughly 83,000, 20% have a hit.
Entry flag: Yes if growth reaches 80%; No if it does not.

Here are 10 compounds together with their reported answers.
compound=COc1cc(-c2cc(-c3nc4ccc(F)cc4[nH]3)[nH]n2)cc(OC)c1OC study_system="RXF 393 renal" group=No
compound=CCOc1ccc(NC(=O)c2ccoc2COc2ccccc2)cc1 study_system="RXF 393 renal" group=Yes
compound="COc1cc(/C=C2\\C(=O)N(CC(O)COc3cc(O)c4c(=O)cc(-c5ccccc5)oc4c3)c3ccccc32)cc(OC)c1O (stereo not given)" study_system="RXF 393 renal" group=Yes
compound="Nc1c2c(nc3ccc(Br)cc13)CC(c1ccccc1)CC2=O (stereo not given)" study_system="RXF 393 renal" group=No
compound=CNC(=O)c1cc(Oc2ccc3nc(NC(=O)Nc4ccc(Cl)cc4)sc3c2)ccn1 study_system="RXF 393 renal" group=No
compound=COc1ccccc1-n1cnc(N)c1C(=O)c1cc(OC)c(OC)c(OC)c1 study_system="RXF 393 renal" group=No
compound="CC(Cc1ccco1)C(=O)NC(N)=O (stereo not given)" study_system="RXF 393 renal" group=Yes
compound=C=C(C)[C@@H]1CC[C@]2(C(=O)OC)CC[C@]3(C)[C@H](CC[C@@H]4[C@@](C)(CC/C(N)=N/O)[C@H](C(=C)C)CC[C@]43C)[C@@H]12 study_system="RXF 393 renal" group=Yes
compound=COC(=O)[C@]12CC[C@@H](C(C)=O)[C@@H]1[C@H]1CC[C@@H]3[C@@]4(C)C/C(=C/c5cccnc5)C(=O)C(C)(C)[C@@H]4CC[C@@]3(C)[C@]1(C)CC2 study_system="RXF 393 renal" group=No
compound="COc1ccc(C2c3ccccc3NC(=O)N2C2CCN(C)CC2)c(OC)c1 (stereo not given)" study_system="RXF 393 renal" group=Yes

## Task Evaluate C=C(C)[C@@H]1CC[C@]2(C=O)CC[C@]3(C)[C@H](CC[C@@H]4[C@@]5(C)C/C(=C/c6cccnc6)C(=O)C(C)(C)[C@@H]5CC[C@]43C)[C@@H]12 : growth at minimum 80%?
## Result Yes

## Task Is growth at least 80%? Consider Cc1ccc(N(CC(=O)Nc2ccc(S(=O)(=O)NC3CCN(C)CC3)cc2)S(=O)(=O)c2ccc(Cl)cc2)cc1
## Result No

----------
In this section we review reported growth values for a set of compounds.
tested on: U251 CNS; test: NCI-60 one-dose screen, 48 h (100 = growth as untreated, 0 = no growth, -100 = all killed); details: 10 µM unless noted
About 83,000 compounds went through this panel and 20% of them were active in at least one assay; those are over-represented in the sample as a whole. Activity calls are given as the source filed them. Rule for the calls: active = growth percent below 10; inactive = the rest.

// known answers, use as guide
substance_smiles=CN1CCN(c2ccc3nc(-c4[nH]ncc4Nc4ncnc5c4OCCCN5)[nH]c3c2)CC1 result="-55.7% (active)"
substance_smiles=Cn1cc(-c2nc(-c3c[nH]c4ncccc34)cs2)c2ccccc21 result="96.6% (inactive)"
substance_smiles=c1ccc2[nH]c(-c3ccc(Nc4nc(N5CCCCC5)nc(N5CCOCC5)n4)cc3)nc2c1 result="8.02% (active)"
substance_smiles=O=C1Nc2ccccc2/C1=C/c1cn(CCCn2c3ccccc3c(=O)c3ccccc32)c2ccccc12 result="93.3% (inactive)"
substance_smiles=Cn1cc(-c2csc(-c3cn(C(=O)OC(C)(C)C)c4ccc(Br)cc34)n2)c2cccnc21 result="87.4% (inactive)"

Continue with the compound presented below.
## Task Query: growth; subject: C=C(C)[C@@H]1CC[C@]2(/C=N/Nc3ccncc3)CC[C@]3(C)[C@H](CC[C@@H]4[C@@]5(C)CCCNC(C)(C)[C@@H]5CC[C@]43C)[C@@H]12
## Result 67.9% (inactive)

----------
test system: LOX IMVI melanoma; assay: NCI-60 one-dose screen, 48 h; details: 10 µM unless noted
The panel holds about 83,000 compounds, 20% with a hit somewhere; the sample as a whole holds those more often. Activity calls are given as the source filed them. Rule for the calls: active = growth percent below 10; inactive = the rest.
Pick from true (1) (active), false (0) (inactive) when you respond.

compound=COc1cccc(-c2nn(-c3ccccc3)cc2-c2ccnc(NCCCNS(=O)(=O)c3ccc(C(F)(F)F)cc3)c2)c1 group="false (0)"

Now examine the next entry.
## Task // return assay outcome for CCCCC(=O)OC1CCCCC1C (stereo unspecified)
## Result false (0)

----------
Test system: 786-0 renal
Assay: NCI-60 one-dose screen, 48 h (100 = growth as untreated, 0 = no growth, -100 = all killed)
Conditions: 10 µM unless noted
Description: Cells are grown in 96 well plates and exposed to the test compound for 48 hours. Compounds are tested at a single concentration, which is 10^-5 M for most compounds. The reported endpoint is percent growth (GI% or GIPRCNT), where numbers from 0 - 100% represent growth inhibition, and numbers from -100% - 0 represent cell death. For example, a value of 40 represents 60% growth inhibition. A value of 0 means no net growth occurred over the course of the experiment. […]
The panel holds about 83,000 compounds, 20% with a hit somewhere; the sample as a whole holds those more often. Activity calls are given as the source filed them. The calls were made as follows: active = growth percent below 10; inactive = the rest.
property.name: growth

## Task Endpoint output: growth of CC(=O)OCCCCCCn1c2ccccc2c2c3c(c4c5ccccc5n(C)c4c21)C(=O)N(O)C3=O . Value?
## Result 88% (inactive)

## Task Recorded growth of CCN(CC)CCCCCNc1cc(OC(=O)c2ccccc2)cc2cccnc12 , please.
## Result 100% (inactive)

## Task Form field: reported growth of Nc1ccccc1NC(=O)c1ccc(CN2CCC/C(=C\c3ccccn3)C2=O)cc1
## Result 44.5% (inactive)

## Task Entry under review: CC1(C)C(=O)/C(=C\c2cccnc2)C[C@]2(C)[C@H]3CC[C@@H]4[C@@H](C(=O)/C=C/c5ccncc5)CC[C@@]4(C)[C@]3(C)CC[C@@H]12 . Reported growth?
## Result -55.7% (active)

## Task Which growth is listed for C=C(C)[C@@H]1CC[C@]2(C)CC[C@]3(C)[C@H](CC[C@@H]4[C@@]5(C)CCCNC(C)(C)[C@@H]5CC[C@]43C)[C@@H]12 ?
## Result 102% (inactive)

## Task Name the reported growth value associated with the compound CC(c1ccccc1)N1C(=O)C(C2SC(=S)N(C(C)c3ccccc3)C2=O)SC1=S (stereo unspecified)
## Result 96.2% (inactive)

## Task Requested read-out: growth. Entry: CCCCC[C@H]1CC=C2C(=O)C(Cl)=C[C@@H]2CC=CCCCC(=O)O[C@@H](CCCCC)CC=C2C(=O)C(Cl)=C[C@@H]2CC=CCCCC(=O)O[C@@H](CCCCC)CC=C2C(=O)C(Cl)=C[C@@H]2CC=CCCCC(=O)O1
## Result 103% [8 µM] (inactive)

## Task # lookup: growth of COc1ccc(-c2cc(=O)oc3ccc(Cl)cc23)cc1F
## Result 25% (inactive)

## Task If you can, please state the reported growth value of O=S(=O)(NCCNc1cc(-c2cn(-c3ccccc3)nc2-c2cccc(O)c2)ccn1)c1ccc(Cl)cc1 .
## Result 12% (inactive)

## Task Consider the compound CC(=O)N1N=C(c2ccc(C)cc2)CC1c1ccc(Oc2ccc(Br)cc2)cc1 (stereo unspecified) and give its measured growth.
## Result 80% (inactive)

## Task Given COc1ccc2c(c1)C(Br)=C(CCO)C2c1ccccc1 (stereo unspecified) , state its recorded growth.
## Result 85.4% (inactive)

## Task Entry C=C(C)[C@@H]1CC[C@]2(C=NCCCNCCCCNCCCN)CC[C@]3(C)[C@H](CC[C@@H]4[C@@]5(C)CCCNC(C)(C)[C@@H]5CC[C@]43C)[C@@H]12 : reported growth = ?
## Result 107% (inactive)

## Task I would be grateful if you could share the reported growth for Cc1cc(N2CCOCC2)nc(N(CCCNc2ccnc3cc(Cl)ccc23)Cc2ccco2)n1 .
## Result 42.1% (inactive)
